Counter-ions that a name gives are not always drawn.
endpoint: melting point

NS(=O)(=O)c1cc2c(cc1Cl)NCN(CCCCO[N+](=O)[O-])S2(=O)=O (as salt: potassium) [Example 40b]    75 to 77 °C
NS(=O)(=O)c1cc2c(cc1Cl)N([N+](=O)[O-])CN(CCO[N+](=O)[O-])S2(=O)=O [Example 52]    144 °C (dec.)
CN(CCO[N+](=O)[O-])C(=O)CN1CNc2cc(Cl)c(S(N)(=O)=O)cc2S1(=O)=O [Example 38]    160 to 165 °C

Prompt: Can you share its melting point? I mean this compound: NS(=O)(=O)c1cc2c(cc1Cl)NC(CCCCO[N+](=O)[O-])NS2(=O)=O (stereo not drawn) [Example 17b]
Response: 171 to 179 °C

Prompt: Can you share its melting point? I mean this compound: NS(=O)(=O)c1cc2c(cc1Cl)NCN(CCCCCCO[N+](=O)[O-])S2(=O)=O [Example 58b]
Response: 158 to 160 °C

Prompt: Can you share its melting point? I mean this compound: NS(=O)(=O)c1cc2c(cc1Cl)NC(CNC(=O)CN(CCO[N+](=O)[O-])CCO[N+](=O)[O-])NS2(=O)=O (stereo not drawn) [Example 57c]
Response: 118 °C (dec.)

Prompt: Can you share its melting point? I mean this compound: CC(CO[N+](=O)[O-])(CO[N+](=O)[O-])C(=O)N1CCC2(CC1)Nc1cc(C(F)(F)F)c(S(N)(=O)=O)cc1S(=O)(=O)N2 [Example 16c]
Response: > 140 °C (dec.)

Prompt: Can you share its melting point? I mean this compound: NS(=O)(=O)c1cc2c(cc1Cl)NCN(C(CO)CO)S2(=O)=O [Example 78b]
Response: 139 to 143 °C

Prompt: Can you share its melting point? I mean this compound: NS(=O)(=O)c1cc2c(cc1Cl)NC(CCO[N+](=O)[O-])NS2(=O)=O (stereo not drawn) [Example 74b]
Response: 113 to 117 °C

Prompt: Can you share its melting point? I mean this compound: NS(=O)(=O)c1cc2c(cc1Cl)NCN(CCOc1cc(CO[N+](=O)[O-])cc(CO[N+](=O)[O-])c1)S2(=O)=O [Example 71c]
Response: 72 to 75 °C

Prompt: Can you share its melting point? I mean this compound: NS(=O)(=O)c1cc2c(cc1Cl)NC(CCc1cc(CO[N+](=O)[O-])cc(CO[N+](=O)[O-])c1)NS2(=O)=O (stereo not drawn) [Example 80b]
Response: 101 to 104 °C

Prompt: Can you share its melting point? I mean this compound: CN(CC1Nc2cc(Cl)c(S(N)(=O)=O)cc2S(=O)(=O)N1)C(=O)c1cc(CO[N+](=O)[O-])cc(CO[N+](=O)[O-])c1 (stereo not drawn) [Example 65d]
Response: 137 °C (dec.)

Prompt: Can you share its melting point? I mean this compound: NS(=O)(=O)c1cc2c(cc1Cl)NCN(CCCCCO)S2(=O)=O [Example 60]
Response: 177 to 179 °C

Prompt: Can you share its melting point? I mean this compound: NS(=O)(=O)c1cc2c(cc1C(F)(F)F)NC(CCCCO[N+](=O)[O-])NS2(=O)=O (stereo not drawn) [Example 61b]
Response: 171 to 177 °C

Prompt: Can you share its melting point? I mean this compound: CC1(C)CC(CC2Nc3cc(Cl)c(S(N)(=O)=O)cc3S(=O)(=O)N2)CC(C)(C)N1O (stereo not drawn) [Example 77]
Response: 174 to 176 °C
